test system: ex vivo porcine jejunum; experiment: Ussing chamber permeation across ex vivo porcine jejunum; assay type: in vitro ADME, pig; conditions: drug retained in intestinal membrane at t = 2 h; presence of the corresponding transporter inhibitor (as E19)
Value type: QDEP (+INH) (%)
State just the number; it will be interpreted in %.

Exam item: What reported QDEP (+INH) corresponds to `CC1=C(C(=O)O)N2C(=O)[C@@H](NC(=O)[C@H](N)c3ccc(O)cc3)[C@H]2SC1` on ex vivo porcine jejunum?
Marked response: 1.47

###

test system: ex vivo porcine jejunum; experiment: Ussing chamber permeation across ex vivo porcine jejunum; type: in vitro ADME, pig; details: drug in acceptor compartment at t = 2 h; presence of the corresponding transporter inhibitor (as E19)
Recorded QPERM (+INH) for the following compounds

Some solved cases for reference:
> print(dat)
                                   compound             result
1  CC(C)c1nc(N(C)S(C)(=O)=O)nc(-c2ccc(F)cc2)c1/C=C/[C@@H](O)C[C@@H](O)CC(=O)O [Rosuvastatin]  0.29 ± 0.16 (6) %
2  O=C(O)c1cc(/N=N/c2ccc(S(=O)(=O)Nc3ccccn3)cc2)ccc1O [Sulfasalazine]  0.12 ± 0.07 (9) %
3  CNC(=C[N+](=O)[O-])NCCSCc1ccc(CN(C)C)o1 [Ranitidine]  0.21 ± 0.03 (5) %

Exam item: Which QPERM (+INH) reading was recorded for the compound CC1=C(C(=O)O)N2C(=O)[C@@H](NC(=O)[C@H](N)c3ccc(O)cc3)[C@H]2SC1 [Cefadroxil] ?
Marked response: 0.31 ± 0.12 (6) %

Exam item: Entry CCCCC(=O)N(Cc1ccc(-c2ccccc2-c2nnn[nH]2)cc1)[C@H](C(=O)O)C(C)C [Valsartan] has what QPERM (+INH)?
Marked response: 0.24 ± 0.10 (4) %
